These entries and their values trace back to ChEMBL document CHEMBL1126031.

# Target system: Renin (Homo sapiens, UniProt P00797)
# Sequence (P00797 whole entry): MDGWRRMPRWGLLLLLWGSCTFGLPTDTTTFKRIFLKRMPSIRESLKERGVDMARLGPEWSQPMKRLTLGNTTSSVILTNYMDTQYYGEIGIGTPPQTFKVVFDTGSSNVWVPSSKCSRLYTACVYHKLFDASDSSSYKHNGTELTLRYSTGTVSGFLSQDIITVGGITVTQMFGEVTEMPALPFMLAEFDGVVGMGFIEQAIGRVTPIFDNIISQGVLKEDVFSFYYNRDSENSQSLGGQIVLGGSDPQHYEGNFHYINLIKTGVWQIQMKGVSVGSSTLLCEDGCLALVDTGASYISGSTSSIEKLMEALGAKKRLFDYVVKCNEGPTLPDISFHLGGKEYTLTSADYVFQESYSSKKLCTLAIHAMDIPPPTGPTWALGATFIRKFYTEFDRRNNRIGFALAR
# Assay remarks: In vitro inhibition of purified human renin at a pH of 6.0.
Can you tell me IC50 for the items I'm about to list?
Answers are plain numbers, in nM.

These recorded examples may help you get a feel for the data.
CC[C@@H]1[C@H](C(=O)N[C@@H](Cc2cscn2)C(=O)N[C@@H](CC2CCCCC2)[C@@H](O)[C@@H](O)CC(C)C)[C@H]1C(=O)N1CCOCC1 92
CC(C)C[C@@H]1[C@H](C(=O)N[C@@H](Cc2cscn2)C(=O)N[C@@H](CC2CCCCC2)[C@@H](O)[C@@H](O)CC(C)C)[C@H]1C(=O)N1CCOCC1 33
CC(C)C[C@H](O)[C@H](O)[C@H](CC1CCCCC1)NC(=O)[C@H](Cc1cscn1)NC(=O)[C@@H]1[C@@H](C(=O)N2CCOCC2)[C@@H]1c1ccccc1 120
CC(C)C[C@H]1[C@H](C(=O)N[C@@H](Cc2cscn2)C(=O)N[C@@H](CC2CCCCC2)[C@@H](O)[C@@H](O)CC(C)C)[C@H]1C(=O)N1CCOCC1 44
CC(C)C[C@H](O)[C@H](O)[C@H](CC1CCCCC1)NC(=O)[C@H](Cc1cscn1)NC(=O)[C@H]1[C@@H](Cc2ccccc2)[C@@H]1C(=O)N1CCOCC1 27

Next:
For CC(C)C[C@H](O)[C@H](O)[C@H](CC1CCCCC1)NC(=O)[C@H](Cc1cscn1)NC(=O)[C@H]1[C@H](Cc2ccccc2)[C@@H]1C(=O)N1CCOCC1 the molecule record lists IC50 as 10
